Experiment: an = ratio of the nth substance listed
Conditions: 313.15 K; 101 kPa; Liquid; Falling or rolling sphere viscometry; a2 = 3
measured.endpoint: viscosity (mPa·s)

compound CCC[N+](CCC)(CCC)Cc1ccccc1.[Cl-] [benzyltripropylammonium chloride] + Oc1ccccc1 , viscosity observed: 107

A: CCC[N+](CCC)(CCC)Cc1ccccc1.[Cl-] [benzyltripropylammonium chloride] + OCC(O)CO
B: CCC[N+](CCC)(CCC)Cc1ccccc1.[Cl-] [benzyltripropylammonium chloride] + OCCO
Higher viscosity: A or B ? Identify your selection by its label.
A
(A: 779.8 mPa·s, B: 90.8 mPa·s)

---

Assay: an = ratio of the nth substance listed
Conditions: 328.15 K; 101 kPa; Liquid; Vibrating tube method; a2 = 3
measured.endpoint: mass density (kg/m3)

compound CCC[N+](CCC)(CCC)Cc1ccccc1.[Cl-] [benzyltripropylammonium chloride] + Oc1ccccc1 , mass density observed: 1037.37

compound CCC[N+](CCC)(CCC)Cc1ccccc1.[Cl-] [benzyltripropylammonium chloride] + OCC(O)CO , mass density observed: 1111.39

compound CCC[N+](CCC)(CCC)Cc1ccccc1.[Cl-] [benzyltripropylammonium chloride] + OCCO , mass density observed: 1042.11

compound CCC[N+](CCC)(CCC)Cc1ccccc1.[Cl-] [benzyltripropylammonium chloride] + CC(O)C(=O)O , mass density observed: 1095.66
